test system: UMSCC-10A head and neck squamous carcinoma cells; assay: Tumor cell growth in vitro (sulforhodamine B), UMSCC-10A; type: cell-based, human; conditions: Homo sapiens, rounded off to one digit, read-out: Inhibition of tumor cell growth in vitro, IC50

{"columns": ["MOLECULE", "TARGET", "IC50, nM"],
 "data": [
  ["CCCCCCCCCCCCCCCC(=O)NC(CN1CCCC1)C(O)c1ccccc1 (racemic) [BML-119]", "UMSCC-10A head and neck squamous carcinoma cells", 1000]
]}

* * *

Measured Sphingomyelinase pH 7.1, enzyme activity (% of control), listed per entry for reference.
tested on: Neutral sphingomyelinase (SMase); test: Neutral sphingomyelinase of MDCK cells; type: biochemical, canine; conditions: 50 μM
Marks after values point to notes of the source that are not given here.
ASSAY_ENDPOINT: Sphingomyelinase pH 7.1, enzyme activity (% of control)

{"columns": ["MOLECULE", "OBSERVED"],
 "data": [
  ["CCCCCCCCCCCCCCCC(=O)NC(CN1CCCC1)C(O)c1ccccc1 (racemic) [BML-130]", "152 ± 14 % of control"],
  ["CCCCCCCCCC(=O)N[C@H](CN1CCOCC1)[C@H](O)c1ccccc1 [PDMP, reference compound]", "108 ± 8 % of control"],
  ["CCCCCCCCCCCCCCCC(=O)NC(CN1CCCC1)C(O)c1ccccc1 (racemic) [BML-129]", "142 ± 11^b % of control"],
  ["CCCCCCCCCCCCCC=CC(O)C(CN1CCCC1)NC(=O)CCCCCCCCCCCCCCC [IV-231B, D-threo-1-pyrrolidino-1-deoxyceramide]", "120 ± 3^b % of control"]
]}

* * *

Measured Ceramide Synthase, enzyme activity (% of control), listed per entry for reference.
system: Ceramide synthase; assay: Ceramide synthase of MDCK homogenate; type: biochemical, canine; settings: 5 μM
ASSAY_ENDPOINT: Ceramide Synthase, enzyme activity (% of control)

{"columns": ["COMPOUND", "OBSERVED"],
 "data": [
  ["CCCCCCCCCCCCCCCC(=O)NC(CN1CCCC1)C(O)c1ccccc1 (racemic) [BML-130]", "108 ± 10 % of control"],
  ["CCCCCCCCCCCCCC=CC(O)C(CN1CCCC1)NC(=O)CCCCCCCCCCCCCCC [IV-231B, D-threo-1-pyrrolidino-1-deoxyceramide]", "90 ± 8 % of control"],
  ["CCCCCCCCCCCCCCCC(=O)NC(CN1CCCC1)C(O)c1ccccc1 (racemic) [BML-129]", "97 ± 0 % of control"],
  ["CCCCCCCCCC(=O)N[C@H](CN1CCOCC1)[C@H](O)c1ccccc1 [PDMP, reference compound]", "99 ± 5 % of control"]
]}

* * *

tested on: GlcCer synthase of MDCK cell homogenates; assay: Inhibition of ceramide glucosyltransferase (GlcCer synthase) of MDCK cell homogenates; type: biochemical, canine; conditions: 5 μM inhibitor; triplicate ± SD; samples partly isomer mixtures
Marks after values point to notes of the source that are not given here.
Measured Inhibition at 5 μM, listed per entry for reference.
ASSAY_ENDPOINT: Inhibition at 5 μM

{"columns": ["COMPOUND", "ASSAY_ENDPOINT", "OBSERVED"],
 "data": [
  ["CCCCCCCCCCCCC/C=C/[C@H](O)[C@@H](CN1CCCC1)NC(=O)CCCCCCCCCCCCCCC [IV-230A]", "Inhibition at 5 μM", "19 ± 2.1^g %"],
  ["CCCCCCCCCC(=O)N[C@H](CN1CCOCC1)[C@H](O)c1ccccc1 [PDMP, reference compound]", "Inhibition at 5 μM", "16 ± 1.8^f %"],
  ["CCCCCCCCCCCCCCCC(=O)NC(CN1CCCCC1)C(O)c1ccccc1 (mixture of isomers)", "Inhibition at 5 μM", "12.4%"],
  ["CCCCCCCCCCCCCCCC(=O)NC(CN1CCCCC1)C(O)c1ccc(F)cc1 (mixture of isomers)", "Inhibition at 5 μM", "8.3 ± 1.4^f %"],
  ["CCCCCCCCCCCCCCCC(=O)NC(CN1CCCC1)C(O)c1ccc(OC)cc1 (mixture of isomers)", "Inhibition at 5 μM", "54 ± 0.3^f %"],
  ["CCCCCCCCCCCCCCCC(=O)NC(CN1CCC1)C(O)c1ccccc1 (mixture of isomers)", "Inhibition at 5 μM", "15 ± 0.8^f %"],
  ["CCCCCCCCCCCCC/C=C/[C@H](O)[C@@H](CN1CCOCC1)NC(=O)CCCCCCCCCCCCCCC [IV-181A]", "Inhibition at 5 μM", "12 ± 0.2^g %"],
  ["CCCCCCCCCCCCCCCC(=O)NC(CN1CCOCC1)C(O)c1ccc(OC)cc1 (mixture of isomers)", "Inhibition at 5 μM", "9 ± 3.0^e %"],
  ["CCCCCCCCCCCCC/C=C/[C@@H](O)[C@@H](CN1CCOCC1)NC(=O)CCCCCCCCCCCCCCC [IV-206A]", "Inhibition at 5 μM", "73 ± 1.5^g %"],
  ["CCCCCCCCCCCCCC=CC(O)C(CN1CCCC1)NC(=O)CCCCCCCCCCCCCCC [IV-231B, D-threo-1-pyrrolidino-1-deoxyceramide]", "Inhibition at 5 μM", "87 ± 0.4^g %"]
]}

* * *

system: GlcCer synthase of MDCK cell homogenates; experiment: Inhibition of ceramide glucosyltransferase (GlcCer synthase) of MDCK cell homogenates; assay type: biochemical, canine; conditions: 80 μM inhibitor; triplicate ± SD; samples partly isomer mixtures
Marks after values point to notes of the source that are not given here.
Measured % Inhibition at 80 μM, listed per entry for reference.

{"columns": ["COMPOUND", "TARGET", "% Inhibition at 80 μM"],
 "data": [
  ["CCCCCCCCCC(=O)NC(CN1CCOCC1)C(O)c1ccc(F)cc1 (mixture of isomers) [BML-117]", "GlcCer synthase of MDCK cell homogenates", "35 ± 0.6^b %"],
  ["CCCCCCCCCCCCCCCC(=O)NC(CN1CCCC1)C(O)c1ccc(OC)cc1 (mixture of isomers) [BML-126]", "GlcCer synthase of MDCK cell homogenates", "60 ± 1.8^e %"],
  ["CCCCCCCCCCCCCCCC(=O)NC(CN1CCOCC1)C(O)c1ccc(F)cc1 (mixture of isomers) [BML-113]", "GlcCer synthase of MDCK cell homogenates", "60 ± 4.7^a %"],
  ["CCCCCCCCCCCCCCCC(=O)NC(CN1CCC1)C(O)c1ccccc1 (mixture of isomers) [BML-123]", "GlcCer synthase of MDCK cell homogenates", "86 ± 0.1^d %"],
  ["CCCCCCCCCCCCCCCC(=O)NC(CN(C)CCO)C(O)c1ccccc1 (mixture of isomers) [BML-122]", "GlcCer synthase of MDCK cell homogenates", "58 ± 1.6^d %"],
  ["CCCCCCCCCCCCCCCC(=O)NC(CN)C(O)c1ccccc1 (mixture of isomers) [BML-124]", "GlcCer synthase of MDCK cell homogenates", "−2 ± 1.6^d %"],
  ["CCCCCCCCCCCCCCCC(=O)NC(CN1CCN(C)CC1)C(O)c1ccccc1 (mixture of isomers) [BML-120]", "GlcCer synthase of MDCK cell homogenates", "11 ± 3.0^c %"],
  ["CCCCCCCCCCCCCCCC(=O)NC(CN1CCCCC1)C(O)c1ccc(F)cc1 (mixture of isomers) [BML-118]", "GlcCer synthase of MDCK cell homogenates", "62 ± 0.4^b %"]
]}

* * *

Measured IC50, listed per entry for reference.
tested on: H-460 lung large cell carcinoma cells; test: Tumor cell growth in vitro (sulforhodamine B), H-460; type: cell-based, human; details: rounded off to one digit, read-out: Inhibition of tumor cell growth in vitro, IC50
ASSAY_ENDPOINT: IC50 (nM)

{"columns": ["MOLECULE", "TARGET", "ASSAY_ENDPOINT", "OBSERVED"],
 "data": [
  ["CCCCCCCCCCCCCCCC(=O)NC(CN1CCCCC1)C(O)c1ccccc1 (mixture of isomers)", "H-460 lung large cell carcinoma cells", "IC50", 2000],
  ["CCCCCCCCCCCCCCCC(=O)NC(CN1CCCC1)C(O)c1ccccc1 (racemic) [BML-130]", "H-460 lung large cell carcinoma cells", "IC50", 3000],
  ["CCCCCCCCCCCCCCCC(=O)NC(CN1CCCCC1)C(O)c1ccc(F)cc1 (mixture of isomers)", "H-460 lung large cell carcinoma cells", "IC50", 2000],
  ["CCCCCCCCCCCCCCCC(=O)NC(CN1CCCC1)C(O)c1ccccc1 (racemic) [BML-129]", "H-460 lung large cell carcinoma cells", "IC50", 2000]
]}

* * *

test system: GlcCer synthase of MDCK cell homogenates; assay: Inhibition of ceramide glucosyltransferase (GlcCer synthase) of MDCK cell homogenates; type: biochemical, canine; conditions: 80 μM inhibitor; triplicate ± SD; samples partly isomer mixtures
Marks after values point to notes of the source that are not given here.

{"columns": ["COMPOUND", "% Inhibition at 80 μM"],
 "data": [
  ["CCCCCCCCCCCCCCCC(=O)NC(CN1CCCCCC1)C(O)c1ccccc1 (mixture of isomers)", "28 ± 3.2^a %"],
  ["CCCCCCCCCCCCCCCC(=O)NC(CN(CC)CC)C(O)c1ccccc1 (mixture of isomers)", "31 ± 2.9^a %"],
  ["CCCCCCCCCC(=O)N[C@H](CN1CCOCC1)[C@H](O)c1ccccc1 [PDMP, reference compound]", "90 ± 0.8^a %"],
  ["CCCCCCCCCCCCCCCC(=O)NC(CN1CCCC(N(C)C)C1)C(O)c1ccccc1 (mixture of isomers)", "11 ± 0.4^c %"]
]}
